test system: PC-9; assay: Cell proliferation assay, PC-9 cells (CellTiter-Glo, 72 hours); assay type: cell-based; conditions: Homo sapiens, PC-9, 72 h, PC9 cells, read-out: GI50 PC9
Recorded endpoint: GI50 (nM)

The following compounds have reported results that may help.
compound="Cn1ncc2c1OCCN1CC3CCC(C3)(C1)n1c(nc3cc(F)c(N4CCOCC4)cc31)NC(=O)c1cc-2c(=O)n(C)c1 (single isomer, unassigned) [Example A118B]" target_under_test=PC-9 test_result=16
compound=Cc1cc2cc(n1)-c1cc(=O)n(C)cc1OCCC[C@@H](C)Cn1c(nc3ccccc31)NC2=O target_under_test=PC-9 test_result=1490
compound=Cc1cc2cc(n1)-c1cnn(C)c1OCCCCCn1c(nc3ccc4c(c31)CCN(C1COC1)C4)NC2=O target_under_test=PC-9 test_result=71

(P) Cc1cc2cc(n1)-c1cnn(C)c1OCCN1CC3CCC(CC3)(C1)n1c(nc3ccc(N(C)CCN(C)C)cc31)NC2=O
(Q) Cn1ncc2c1OCCN1CC3CCC(CC3)(C1)n1c(nc3cc(F)ccc31)NC(=O)c1cc-2c(=O)n(C)c1
(R) Cc1cc2cc(n1)-c1cnn(C)c1OCCN1CC3CCC(CC3)(C1)n1c(nc3ccc(N4CC[C@@H](N(C)C)C4)cc31)NC2=O
(S) Cc1cc2cc(n1)-c1cnn(C)c1OCCN1CC3CCC(C3)(C1)n1c(nc3ccccc31)NC2=O (single isomer, unassigned) [Example B8A]
(T) Cc1cc2cc(n1)-c1cnn(C)c1OCCN1CCOCC(C1)n1c(nc3ccccc31)NC2=O (single isomer, unassigned) [Example B7A]
Ascending sort, GI50. Write the labels in rank order as requested.
P, R, Q, T, S
(P: 81 nM, R: 155 nM, Q: 256 nM, T: 427 nM, S: 2850 nM)

(1) C[C@@H]1CCCOc2cc(F)c(F)cc2-c2cc(cn(C)c2=O)C(=O)Nc2nc3ccc(N4CCN(C)CC4)cc3n2C1
(2) Cc1cc2cc(n1)-c1cnn(C)c1OCCCCCn1c(nc3ccc4c(c31)CCN(CCN(C)C)C4)NC2=O
Field: lower recorded GI50 (choose 1 or 2 ) Return value: the label identifying the chosen record.
2

(A) Cc1cc2cc(n1)-c1cnn(C)c1OCCN1CC3CCC(CC3)(C1)n1c(nc3ccc(N4CC5CN(C)CC5C4)cc31)NC2=O (centres unmarked)
(B) CN(C)CCCN(C)c1ccc2nc3n(c2c1)C12CCC(CC1)CN(CCOc1c(cnn1C)-c1cc(cn(C)c1=O)C(=O)N3)C2
(C) Cc1cc2cc(n1)-c1cnn(C)c1OCCN1CC3CCC(CC3)(C1)n1c(nc3ccc(N4CCN(C5CC5)CC4)cc31)NC2=O
(D) Cc1cc2cc(n1)-c1cnn(C)c1OCCC[C@@H](C)Cn1c(nc3ccc4c(c31)CCN(CCN(C)C)C4)NC2=O
Please produce an ascending ranking of these compounds based on GI50. Please respond with the labels ordered as the question requires.
D, B, A, C
(D: 12 nM, B: 35 nM, A: 86 nM, C: 186 nM)

----------
biological target: EGFR wild type (Homo sapiens); construct: purchased Carna Bio; assay: Inhibition of EGFR wild type biochemical enzymatic activity (HTRF); conditions: EGFR wild type, 1 mM ATP, 1 h at room temperature, read-out: IC50 @WT
Sequence (P00533 25-1210): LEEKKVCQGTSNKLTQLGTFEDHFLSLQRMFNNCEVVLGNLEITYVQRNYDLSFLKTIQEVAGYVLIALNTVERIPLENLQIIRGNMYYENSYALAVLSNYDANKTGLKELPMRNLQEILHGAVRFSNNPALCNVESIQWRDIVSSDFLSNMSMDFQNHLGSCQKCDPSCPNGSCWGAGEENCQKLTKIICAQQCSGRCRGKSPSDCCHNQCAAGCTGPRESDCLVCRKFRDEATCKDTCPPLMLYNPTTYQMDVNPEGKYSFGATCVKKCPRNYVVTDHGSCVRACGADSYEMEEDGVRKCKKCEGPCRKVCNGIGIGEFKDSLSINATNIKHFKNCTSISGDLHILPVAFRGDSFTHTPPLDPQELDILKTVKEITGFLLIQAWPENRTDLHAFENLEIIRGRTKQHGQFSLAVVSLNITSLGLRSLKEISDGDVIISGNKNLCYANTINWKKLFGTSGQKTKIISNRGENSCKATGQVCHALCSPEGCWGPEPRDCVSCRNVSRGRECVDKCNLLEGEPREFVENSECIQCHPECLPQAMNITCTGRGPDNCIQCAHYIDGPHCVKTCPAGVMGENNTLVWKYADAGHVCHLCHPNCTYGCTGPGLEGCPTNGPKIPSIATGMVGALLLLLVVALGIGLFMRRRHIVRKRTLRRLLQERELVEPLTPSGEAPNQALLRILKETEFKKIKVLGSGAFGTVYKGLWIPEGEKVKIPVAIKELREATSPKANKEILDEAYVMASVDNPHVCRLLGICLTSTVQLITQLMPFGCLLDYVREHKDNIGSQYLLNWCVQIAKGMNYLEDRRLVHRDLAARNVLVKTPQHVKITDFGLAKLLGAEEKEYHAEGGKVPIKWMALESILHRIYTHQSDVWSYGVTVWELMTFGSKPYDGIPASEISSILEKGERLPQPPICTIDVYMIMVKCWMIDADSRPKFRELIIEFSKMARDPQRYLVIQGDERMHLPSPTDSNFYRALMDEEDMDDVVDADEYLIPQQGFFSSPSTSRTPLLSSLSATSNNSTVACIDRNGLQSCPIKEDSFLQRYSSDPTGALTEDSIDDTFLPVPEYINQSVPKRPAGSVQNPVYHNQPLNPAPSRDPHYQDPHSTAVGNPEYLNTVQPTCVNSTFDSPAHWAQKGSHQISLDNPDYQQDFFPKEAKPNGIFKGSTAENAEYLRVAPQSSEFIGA
pIC50: −log10 of the molar value.
Recorded endpoint: pIC50

(I) Cc1cc2cc(n1)-c1cnn(C)c1OCCN1CC3CCC(C3)(C1)n1c(nc3ccc(N4CCN(C5CC5)CC4)cc31)NC2=O (single isomer, unassigned) [Example B55B]
(II) Cc1cc2cc(n1)-c1cnn(C)c1OCCN1CC3CCC(C3)(C1)n1c(nc3ccc(N4CC[C@H](N(C)C)C4)cc31)NC2=O (single isomer, unassigned) [Example B41B]
Input pair: I , II . Output: entry with lower pIC50. Answer format: the label of the selected item.
I

----------
test system: Ba/F3 cells expressing EGFR mutations; assay: Cell proliferation assay, Ba/F3 cells expressing EGFR mutations (CellTiter-Glo, 72 hours); type: cell-based; conditions: BaF3 cells, EGFR DEL19 - C797S, read-out: GI50 DEL19 - C797S/BaF3
Recorded endpoint: GI50 (nM)

In the examples that follow, each entry is paired with its recorded GI50.
compound="Cc1cc2cc(n1)-c1cnn(C)c1OCCN1CC3CCC(C3)(C1)n1c(nc3ccc(N4CCC(N5CCOCC5)C4)cc31)NC2=O (single isomer, unassigned) [Example B44B2]" target_under_test="Ba/F3 cells expressing EGFR mutations" recorded_endpoint=GI50 test_result=2
compound="Cc1cc2cc(n1)-c1cnn(C)c1OCCN1CC3CCC(C3)(C1)n1c(nc3ccc(N4CC5CN(C)CC5C4)cc31)NC2=O (single isomer, unassigned) [Example B43B]" target_under_test="Ba/F3 cells expressing EGFR mutations" recorded_endpoint=GI50 test_result=2

(a) Cc1cc2cc(n1)-c1cnn(C)c1OCCN1CC3CCC(C3)(C1)n1c(nc3ccc(N4CC(N5CCOCC5)C4)cc31)NC2=O (single isomer, unassigned) [Example B48B]
(b) COCCN(C)c1ccc2nc3n(c2c1)C12CCC(CN(CCOc4c(cnn4C)-c4cc(cc(C)n4)C(=O)N3)C1)C2 (single isomer, unassigned) [Example B46A]
Smaller GI50 value, a vs b ? Mark your selection by writing its label.
a
(a: 2 nM, b: 977 nM)

----------
target: EGFR (d746-750 C797S) (Homo sapiens, UniProt P00533, C797S/DEL746-750); construct: purchased signalchem; experiment: Inhibition of EGFR (d746-750 C797S) biochemical enzymatic activity (HTRF); settings: EGFR Del19-C797S, 1 mM ATP, 1 h, room temperature, read-out: IC50 (nM) @Del19-C797S
Sequence (P00533 with tags, fused parts or gaps DEL746-750/C797S limits assumed): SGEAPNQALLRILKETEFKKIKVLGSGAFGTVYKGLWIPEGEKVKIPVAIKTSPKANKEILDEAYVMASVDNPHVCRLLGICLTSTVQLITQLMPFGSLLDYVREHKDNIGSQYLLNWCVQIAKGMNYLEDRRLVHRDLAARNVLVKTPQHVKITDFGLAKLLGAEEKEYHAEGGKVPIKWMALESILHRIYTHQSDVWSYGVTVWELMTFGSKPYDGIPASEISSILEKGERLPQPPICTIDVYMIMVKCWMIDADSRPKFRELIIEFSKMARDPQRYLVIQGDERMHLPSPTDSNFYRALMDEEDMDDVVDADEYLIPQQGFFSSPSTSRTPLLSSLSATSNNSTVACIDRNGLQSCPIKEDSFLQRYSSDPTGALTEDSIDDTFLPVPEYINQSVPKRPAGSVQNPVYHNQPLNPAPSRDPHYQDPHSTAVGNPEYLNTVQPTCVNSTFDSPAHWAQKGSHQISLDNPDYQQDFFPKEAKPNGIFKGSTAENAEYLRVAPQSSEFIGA
Recorded endpoint: IC50 (nM)

(a) CN(C)[C@H]1CCN(c2ccc3nc4n(c3c2)C23CCC(CN(CCOc5c(cnn5C)-c5cc(cn(C)c5=O)C(=O)N4)C2)C3)C1 (single isomer, unassigned) [Example A66B]
(b) CN(C)C1CCN(c2ccc3nc4n(c3c2)C23CCC(CN(CCOc5c(cnn5C)-c5cc(cn(C)c5=O)C(=O)N4)C2)C3)CC1 (single isomer, unassigned) [Example A64B]
(c) C[C@@H]1CCCOc2ccccc2-c2cc(cn(C)c2=O)C(=O)Nc2nc3ccc(N4CCN(C)CC4)cc3n2C1 [Example A109]
(d) CN1CCN(c2ccc3nc4n(c3c2)CCN(CC(F)(F)F)CCOc2c(cnn2C)-c2cc(cn(C)c2=O)C(=O)N4)CC1 [Example A3]
Reorder the list above by recorded IC50 in ascending order. Put the labels in the requested order and list them out.
b, a, c, d

----------
molecular target: EGFR Exon19Del (Homo sapiens, UniProt P00533, DEL746-750); construct: purchased Carna Bio; experiment: Inhibition of EGFR Exon19Del biochemical enzymatic activity (HTRF); settings: EGFR Exon19Del, 1 mM ATP, 1 h at room temperature, read-out: IC50 @Del19
Sequence (P00533 with tags, fused parts or gaps DEL746-750 limits assumed): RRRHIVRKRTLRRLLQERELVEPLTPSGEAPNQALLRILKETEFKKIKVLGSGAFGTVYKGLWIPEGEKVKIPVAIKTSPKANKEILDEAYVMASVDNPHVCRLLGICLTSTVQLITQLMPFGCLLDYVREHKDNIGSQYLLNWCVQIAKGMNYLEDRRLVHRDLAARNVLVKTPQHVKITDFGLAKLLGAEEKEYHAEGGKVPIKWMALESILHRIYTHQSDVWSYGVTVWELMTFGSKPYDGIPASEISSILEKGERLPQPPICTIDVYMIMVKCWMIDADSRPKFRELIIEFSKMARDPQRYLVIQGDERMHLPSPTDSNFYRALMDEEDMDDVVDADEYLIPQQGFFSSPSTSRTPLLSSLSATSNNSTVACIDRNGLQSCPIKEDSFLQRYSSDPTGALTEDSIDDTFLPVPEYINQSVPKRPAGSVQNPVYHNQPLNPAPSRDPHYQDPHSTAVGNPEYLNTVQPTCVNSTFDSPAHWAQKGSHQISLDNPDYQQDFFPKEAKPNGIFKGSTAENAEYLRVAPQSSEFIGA
pIC50: −log10 of the molar value.
Recorded endpoint: pIC50

compound="Cc1cc2cc(n1)-c1cnn(C)c1OCCN1CC3CCC(C3)(C1)n1c(nc3ccc(N4CCC5(CCN(C)C5)CC4)cc31)NC2=O (single isomer, unassigned) [Example B52B]" target_under_test="EGFR Exon19Del (Homo sapiens, UniProt P00533, DEL746-750)" recorded_endpoint=pIC50 test_result=8.27

(a) Cc1cc2cc(n1)-c1cnn(C)c1OCCC[C@@H](C)Cn1c(nc3ccc4c(c31)CCN(CCN(C)C)C4)NC2=O
(b) Cc1cc2cc(n1)-c1cnn(C)c1OCCN1CC3CCC(C3)(C1)n1c(nc3ccc(N4CCC(N5CCOCC5)C4)cc31)NC2=O (single isomer, unassigned) [Example B44B1]
Field: lower pIC50 | Options: a / b Answer with the label corresponding to your selection.
b

----------
target: EGFR Exon19Del (Homo sapiens, UniProt P00533, DEL746-750); construct: purchased Carna Bio; test: Inhibition of EGFR Exon19Del biochemical enzymatic activity (HTRF); conditions: EGFR Exon19Del, 1 mM ATP, 1 h at room temperature, read-out: IC50 @Del19
pIC50: −log10 of the molar value.
Recorded endpoint: pIC50

(a) Cc1cc2cc(n1)-c1cnn(C)c1OCCN1CC3CCC(C3)(C1)n1c(nc3ccccc31)NC2=O (stereo not drawn) [Example B8B]
(b) Cc1cc2cc(n1)-c1cnn(C)c1OCCN1CC3CCC(C3)(C1)n1c(nc3ccc(N4CC5CN(C)CC5C4)cc31)NC2=O (single isomer, unassigned) [Example B43B]
(c) Cc1cc2cc(n1)-c1cnn(C)c1OCCCCCn1c(nc3ccc4c(c31)CCNC4)NC2=O
List the 3 compounds shown above, ordered by increasing pIC50. Output spec: labels arranged per the requested ranking.
c, a, b
(c: 6.30, a: 7.85, b: 8.18)
